These data points were gathered from ChEMBL document CHEMBL3259546.

Measured pIC50, listed per entry.
System: Osteoclast
Procedure text: Inhibition of RANKL-induced osteoclast differentiation in ICR mouse bone marrow after 48 hrs by TRAP assay
Format: functional, cell-based
Please express pIC50 as -log10 of the molar concentration.

Compound smiles: COc1cc(/C=C/C(=O)O[C@@H]2CN(C)CC[C@@H]2c2c(O)cc(O)c3c(=O)cc(C)oc23)cc(OC)c1OC
pIC50: 5.01

Now for the compound whose pIC50 we want.
Documented pIC50 of `COc1cc(C(=O)O[C@@H]2CN(C)CC[C@@H]2c2c(O)cc(O)c3c(=O)cc(C)oc23)ccc1O` : 4.82
